Test system: TK-10 renal
Assay: NCI tumour cell line growth inhibition, 48 h
Quick reference for TGI among some compounds

COMPOUND	TGI / µM
C1COCCOCCOCCOCCO1.CC(=O)[CH-]C(C)=O.CC(=O)[CH-]C(C)=O.CC(=O)[CH-]C(C)=O.[V]	52
COc1cc2c(cc1OCCCC(=O)Nc1cc(C(=O)NCCCN(C)C)n(C)n1)N=CC1CCCN1C2=O (stereo not drawn)	14.9

---

Test system: UACC-62 melanoma
Experiment: NCI tumour cell line growth inhibition, 48 h
Measured TGI values are reported for all entries that follow.

MOLECULE	UNITS_TEXT	TGI
c1ccc(N=C2SC3=NCCN3C2=Nc2ccccc2)cc1	µM	22.7
CCCN(CCSSCCNc1nc(N(C)O)nc(N(C)O)n1)c1nc(N(C)O)nc(N(C)O)n1	µM	28.9
c1ccc(C(CCN2CC3CCC(CC3)C2)c2ccccc2)cc1	µM	35.3
c1ccc(COC2(OCc3ccccc3)CC3OC2C2NN=NC32)cc1 (stereo not given)	µM	46.6
COc1ccc2c(c1)C1(C(=O)N2)C(C#N)=C(c2ccccc2)Nc2c1c(-c1ccccc1)nn2-c1ccccc1 (stereo not given)	µM	18.2
CC(C)C(=O)/C=C/c1ccc(Cl)c(Cl)c1	µM	34.9
Cc1cc(N(CCCl)CCCl)ccc1/C=N/NC(=O)Cc1cc(=O)oc2cc(O)ccc12	µM	13.2
S=c1nc(N2CCCCC2)ss1	µM	35.4
Oc1ccc(O)c(CNc2ccccc2)c1	µM	30.6
O=C(COc1cccc(/C=C2\CSc3ccccc3C2=O)c1)c1ccc(Cl)cc1	µM	3.24
N=c1c2c(=S)n(-c3ccccc3)c(=S)n(-c3ccccc3)c2nc(SCCN2CCOCC2)n1-c1ccccc1	µM	3.29
COc1ccc(-c2cc(=O)c3c(OC)c(OC)c(OC)c(OC)c3o2)c(OC)c1	µM	33
